# procedureDetails: yeast display, Sf9 membrane polyspecificity reagent, FACS + sequencing; frameworks hold sequencing errors
outcomeMeasure: polyreactivity (PSR sort gate)

residueSequence	result
QVQLVESGGGLVQAGGSLRLSCAACGRTFRFYAMGWYRKAPGKERELVAAISKSGGSTYYADSVKGRFTISRDNEKNTVYLQMNSLKPEDTAVYYCAAQTYLYDYKYWGQGTQVTVSS	high polyreactivity
QVQLVESGGGLVQAGGSLRISCAASGYIYGYNAMGWYRQAPGIAREFVAAIRFSGGSTYYADSVKGRFTISRDNAKNTVYLQMNSLKPEDTAVYYCAKRCYAHLIPIAYEYWGQGTQVTVSS	low polyreactivity
QVQLVESGGGLVQAGGSLSLSCAASGLTFDTNAMGWYRQAPGKERELVAAITDSGDSTYYADSVKGRFTISRDNEKNTVYLQMNSLKPEDTAVYYCAARRSNLAWGRRRMYYWGQGTQVTVSS	high polyreactivity
QVQLGESGGGLVQAGGSLRLICAASGFIVTTYVMGWYRQAPGKERELVAVISRSGGRTYYADSVKGRFTISRDNAKNTVYLQMNSLKPEDTAVYYCNVDIPVLSHIEYYYWGQGTQVTVSS	low polyreactivity
QVQLVESGGGLVQAGGSLRLSCAASGRIFKGYAMGWYRQAPGKERELVAAITWRGGTTYYADSVKGRFTISRDNAKNTVYLQMNSLKPEDTAVYYCATTRYPRSYQEFGYWGQGTQVTVSS	high polyreactivity
QVQLVESGGGLVQAGGILRLSCAASGSIYGYNAMGSYRQAPGKERELVADITSSGSTYYADSVKGRFTISRDNAKNTVYLQMNSLKPEDTAVYYCAARYFVYYLEVDSWGQGTQVTVSS	low polyreactivity
QVHLVESGGGLVQAGGSLRLSCAASGITFRRNTMGWYRQAPGKERELVATISWRGGNTFYADSVKRRFTISRDNAKNTVYLQMHSLKPEDTAVYYCAVAFKGPSGYQYDYWGQGTQVTVSS	high polyreactivity
QVQLVESGGGLVQAGRSLRLTCAASGRIFRRYAMGWSRQAPGKERELVAAIRTSGGNTYYADSVKGRFTISRDNAKNTVYLQMNSLKPEDTAVYYCAAERGRLVAIASDYWGQGTQVTVSS	high polyreactivity
QVQLVESGGGLVQAGGSLRLSCAASGSIFSIYAMEWYRQAPGKERELVAAITWGGGSTYYADSVKGRFTISRDNAKNTVYLQMNSLKPEDTAVYYCAADSLTWYGTYYYWGQGTQVTVSS	high polyreactivity
QVQLVESGGGLVQAGGSLRLSCAASGFTFRRYAMGWYRQAPGKERELVAAISRGSSTYYADSVKGRFTISRDNAKNTVYLQMNSLKPEDTAVYYCAADWEQLRGTMDYWGQGTQVTVSS	high polyreactivity
QVQLGESGGGLVQAGGSLRLSCAPSGNNFVGNAMGWCRQAAGKERELVAAIRRSGGTTYYADSVKGRFTISRDNAKNTVYLQMNSLKPEDTAVYYCAASRPYQGDYWGQGTQVTVSS	low polyreactivity
QVQLVESGGGLVQAGGSLRLSCAASGSIFYSNAMGWYRQAPGKERELVAAIHWSGGSTYYADSVKGRFTISRDNAKNTFYLLMNSLKPEDTAVYYCAADYGWGPIYDYWGQGTQVNVSS	low polyreactivity
QVQLVESGGGLVPAGGSLRLSCAASGNNFRANTMGWYRQARGKERELVASIRRSGGSSYYADSVKGRFTISRDNAKNTVYLQMNSLKPEDTAAYYCAAESRPPYTDNYYWGQGTQVTVSS	high polyreactivity
QVHHVESGAGLVQAGGSLRLSSAASGRTFGSNTKGCYSQAPGKERELVAAITISGGSTYYADSVKGRFTISRDNAKNTVYLKMNSLKPEDTAVYYCATRLWGHGGGRTTSYMYNWRQGTQVTVSS	high polyreactivity
QVQLVESGGGLVQAGGSLRLSCAASGRIIGFNAMGWYRQAPGKERELVASIRTTGGSTRYADSVKGRFTISRDNAKNTVYLQMNSLKPEDTAVYYCAARSRLRYLYDYWGQVTQVTVSS	high polyreactivity
QVQLVESGGGLVQAGGSLRLSCAASGFTFYSYVIGWYRQAPGKERELVAAITRGGSTYYADSVKGRFTISRDNAKNTVYLQMNSLKPEDTAVYYCAKRPSYGYNYWGQGTQVTVSS	low polyreactivity
QVQLVDSGGGLVQAGGSLRLSCAASGRIFGPYAMVWYRQAPGKERELVASISYSGGSTYYADSVKGRFTISRDNAKNTVYLQMNSLKPEDTAVYYCAKGGYWGGYNYWGQGTQVTVSS	low polyreactivity
QVQLVESGGGLVQAGGSLRLSCAASGRTFGRYAMGWYRQAPGKEREFVASISRRGGSTNYADSVKGRFTISRDNAKNTVYLQMNSLKPEDTAVYYCAKRFTLPLSEYDYWGQGTQVTVSS	high polyreactivity
QVQLVESCGGLVQAGGSLRLSCAASGSTFSSYAMGWYSQAPGKERELVAAISSSGGTSTYADSVKGPFTISRDNAKNTVYLQMNSLKPEDTAVYYCNTDRFRRLYDYWGQGTQVTVSS	high polyreactivity
QVQLVESGGGLVQAGGSLRISCAASGRILARNAMGWYRQAPGKERDLVATITWTDGSTYYADSVKGRFTISRDNAKNTVYLQMNSLKPEDTAVYYCDADLPGYWLPTVPKNYGDYWGQGTQVTVSS	low polyreactivity
QVQLVETGAGLVQAGGSLRLSCAASGILLFNAMGWNTQPPGKERELVAAINSGGSTNYADSVKGRFTISRDNAKNTVYFQMNSLIPEDTAVYFCAKDTPFTLRVWAEGGMDYWGHGTQVTVSS	low polyreactivity

Numbers sourced from the nanobody polyreactivity screen of Harvey et al. (2022).
